# ELISA Assay Ratio b1/b7 values compiled below
target: recombinant integrin α4β7 (Homo sapiens, UniProt P13612+P26010, DEL724-798); construct: purchased R&D Systems 5397-A3-050; experiment: Integrin α4β7—MAdCAM-1 ELISA competition assay; format: binding; settings: ratio of a4b1 to a4b7 ELISA IC50
I only need the number, thanks.

CC(C)C[C@@H]1NC(=O)c2ccc(Br)c(c2)CNC(=O)[C@H](Cc2ccc(O)cc2)NC(=O)[C@@H]2CCCN2[C@H](C(=O)NC(C)(C)C)[C@H](C)NC(=O)[C@H]([C@@H](C)O)NC(=O)[C@H](CC(=O)O)NC1=O | 5.6

Shift focus to the following entry.
So, `CC[C@H](C)[C@@H]1NC(=O)[C@H](CC(=O)O)NC(=O)[C@H](CC(C)C)NC(=O)C[C@H](CCCCN)NC(=O)[C@H](Cc2ccc(CN)cc2)NC(=O)[C@@H]2CCCN2[C@H](C(=O)NC(C)(C)C)[C@H](C)NC1=O` ? Its ELISA Assay Ratio b1/b7 was 12.4

----------
# pIC50 values compiled below
Molecular target: integrin α4β7 (RPMI8866 human cells adhering to MAdCAM-1) (Homo sapiens, UniProt P13612+P26010)
Construct: RMP18866 cells, which express integrin α4β7; host or cells: RPMI8866
Assay: Integrin α4β7-MAdCAM cell adhesion assay (RPMI8866 cells)
Type: cell-based
Conditions: RPMI8866 cells adhering to MAdCAM; read-out: RPMI8866 Adhesion α4β7/MAdCAM IC50
Procedure: Integrin α4β7-MAdCAM Cell Adhesion Assay RPMI8866 cells were resuspended at 10 million cells/ml in PBS containing […] and incubated at 37° C. for 30 min in a 50 ml tube. […] The plate was emptied by inverting and blotting on paper towels and washed manually twice with PBS. 100 μl PBS was then added to each well. […] To calculate the dose response, the fluorescence value of control wells not containing cells was subtracted from each test well.
Keep in mind that pIC50 stands for -log10 of concentration in molar terms.

Field: example entries. Status: answers known.
CC(C)C[C@@H]1NC(=O)C[C@H](CCCCN)N(C)C(=O)[C@H](CCCCNC(=O)CCC(=O)NCCCC[C@@H]2NC(=O)[C@@H]3CCCN3[C@H](C(=O)NC(C)(C)C)[C@H](C)NC(=O)[C@H]([C@@H](C)O)NC(=O)[C@H](CC(=O)O)NC(=O)[C@H](CC(C)C)NC(=O)C[C@H](CCCCN)N(C)C2=O)NC(=O)[C@@H]2CCCN2[C@H](C(=O)NC(C)(C)C)[C@H](C)NC(=O)[C@H]([C@@H](C)O)NC(=O)[C@H](CC(=O)O)NC1=O | 7.64
CC(C)C[C@@H]1NC(=O)c2ccc(-c3ccc(N4CCN(C(=O)c5ccc6cc(C(=O)N7CCN(c8ccc(-c9ccc%10cc9CNC(=O)[C@@H]9CCCN9[C@H](C(=O)NC(C)(C)C)[C@H](C)NC(=O)[C@H]([C@@H](C)O)NC(=O)[C@H](CC(=O)O)NC(=O)[C@H](CC(C)C)NC%10=O)cc8)CC7)ccc6c5)CC4)cc3)c(c2)CNC(=O)[C@@H]2CCCN2[C@H](C(=O)NC(C)(C)C)[C@H](C)NC(=O)[C@H]([C@@H](C)O)NC(=O)[C@H](CC(=O)O)NC1=O | 7.54
CC(C)C[C@@H]1NC(=O)c2ccc(-c3ccc(N4CCN(C(=O)[C@H]5CCCC[C@H]5C(=O)N5CCN(c6ccc(-c7ccc8cc7CNC(=O)[C@@H]7CCCN7[C@H](C(=O)NC(C)(C)C)[C@H](C)NC(=O)[C@H]([C@@H](C)O)NC(=O)[C@H](CC(=O)O)NC(=O)[C@H](CC(C)C)NC8=O)cc6)CC5)CC4)cc3)c(c2)CNC(=O)[C@@H]2CCCN2[C@H](C(=O)NC(C)(C)C)[C@H](C)NC(=O)[C@H]([C@@H](C)O)NC(=O)[C@H](CC(=O)O)NC1=O | 7.64

So, `CC(C)C[C@@H]1NC(=O)c2ccc(-c3ccc(N4CCN(C(=O)c5cc(F)ccc5-c5ccc(F)cc5C(=O)N5CCN(c6ccc(-c7ccc8cc7CNC(=O)[C@@H]7CCCN7[C@H](C(=O)NC(C)(C)C)[C@H](C)NC(=O)[C@H]([C@@H](C)O)NC(=O)[C@H](CC(=O)O)NC(=O)[C@H](CC(C)C)NC8=O)cc6)CC5)CC4)cc3)c(c2)CNC(=O)[C@@H]2CCCN2[C@H](C(=O)NC(C)(C)C)[C@H](C)NC(=O)[C@H]([C@@H](C)O)NC(=O)[C@H](CC(=O)O)NC1=O` ? Its pIC50 was 7.74

So, `CC(C)C[C@@H]1NC(=O)[C@H]2Cc3ccccc3CN2C(=O)[C@H](Cc2cccc(CNC(=O)CCCCCCC(=O)NCc3cccc(C[C@@H]4NC(=O)[C@@H]5CCCN5[C@H](C(=O)NC(C)(C)C)[C@H](C)NC(=O)[C@H]([C@@H](C)O)NC(=O)[C@H](CC(=O)O)NC(=O)[C@H](CC(C)C)NC(=O)[C@H]5Cc6ccccc6CN5C4=O)c3)c2)NC(=O)[C@@H]2CCCN2[C@H](C(=O)NC(C)(C)C)[C@H](C)NC(=O)[C@H]([C@@H](C)O)NC(=O)[C@H](CC(=O)O)NC1=O` ? Its pIC50 was 7.33

----------
Target: recombinant integrin α4β7 (Homo sapiens, UniProt P13612+P26010, DEL724-798)
Construct: purchased R&D Systems 5397-A3-050
Sequence (P13612 34-970 limits assumed): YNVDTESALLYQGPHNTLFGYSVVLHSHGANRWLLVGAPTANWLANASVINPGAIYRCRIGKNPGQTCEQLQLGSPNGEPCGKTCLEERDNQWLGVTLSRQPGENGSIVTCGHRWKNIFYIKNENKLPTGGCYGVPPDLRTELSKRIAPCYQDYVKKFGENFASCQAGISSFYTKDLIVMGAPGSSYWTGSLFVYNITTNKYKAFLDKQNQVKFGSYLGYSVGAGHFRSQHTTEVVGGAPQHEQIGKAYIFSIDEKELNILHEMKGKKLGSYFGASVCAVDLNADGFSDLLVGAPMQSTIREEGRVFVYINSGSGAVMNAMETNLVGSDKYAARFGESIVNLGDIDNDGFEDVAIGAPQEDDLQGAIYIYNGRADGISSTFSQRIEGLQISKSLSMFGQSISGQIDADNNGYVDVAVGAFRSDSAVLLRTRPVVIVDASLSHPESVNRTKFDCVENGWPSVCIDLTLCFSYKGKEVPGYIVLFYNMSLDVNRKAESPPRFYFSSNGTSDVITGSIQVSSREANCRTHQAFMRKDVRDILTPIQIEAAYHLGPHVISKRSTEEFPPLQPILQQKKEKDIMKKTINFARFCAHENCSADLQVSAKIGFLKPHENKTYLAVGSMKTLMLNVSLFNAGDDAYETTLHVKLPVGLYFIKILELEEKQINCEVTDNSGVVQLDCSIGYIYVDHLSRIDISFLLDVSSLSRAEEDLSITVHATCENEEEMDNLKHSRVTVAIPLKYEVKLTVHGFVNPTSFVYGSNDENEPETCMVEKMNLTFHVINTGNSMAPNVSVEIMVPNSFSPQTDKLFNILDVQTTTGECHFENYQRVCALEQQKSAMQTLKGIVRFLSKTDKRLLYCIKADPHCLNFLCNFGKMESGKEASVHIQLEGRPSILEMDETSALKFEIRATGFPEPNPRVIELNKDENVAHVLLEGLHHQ
Sequence (P26010 20-723 limits assumed): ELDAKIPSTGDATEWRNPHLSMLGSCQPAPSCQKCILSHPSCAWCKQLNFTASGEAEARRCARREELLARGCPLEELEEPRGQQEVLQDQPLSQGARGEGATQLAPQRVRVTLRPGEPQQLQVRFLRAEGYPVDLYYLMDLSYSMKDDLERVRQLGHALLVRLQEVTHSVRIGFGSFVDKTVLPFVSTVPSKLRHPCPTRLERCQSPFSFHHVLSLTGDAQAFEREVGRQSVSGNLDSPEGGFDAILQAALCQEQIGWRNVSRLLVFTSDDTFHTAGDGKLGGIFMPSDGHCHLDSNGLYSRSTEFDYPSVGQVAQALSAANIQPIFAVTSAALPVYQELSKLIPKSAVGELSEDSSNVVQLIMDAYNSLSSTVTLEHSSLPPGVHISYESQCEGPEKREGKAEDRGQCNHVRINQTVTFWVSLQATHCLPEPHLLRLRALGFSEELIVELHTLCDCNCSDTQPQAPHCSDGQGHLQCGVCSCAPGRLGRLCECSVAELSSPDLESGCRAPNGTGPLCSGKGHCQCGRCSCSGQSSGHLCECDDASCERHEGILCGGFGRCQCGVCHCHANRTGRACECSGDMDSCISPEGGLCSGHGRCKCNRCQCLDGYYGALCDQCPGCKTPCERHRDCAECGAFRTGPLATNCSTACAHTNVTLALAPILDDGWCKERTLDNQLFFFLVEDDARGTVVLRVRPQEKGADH
Test: Integrin α4β7—MAdCAM-1 ELISA competition assay
Format: binding
Conditions: read-out: ELISA a4b7 Assay IC50
PROPERTY MEASURED: pIC50
Keep in mind that pIC50 stands for -log10 of concentration in molar terms.

CC(C)C[C@@H]1NC(=O)[C@H](Cc2ccc(-c3ccccc3)cc2)NC(=O)[C@@H]2CCCN2[C@H](C(=O)NC(C)(C)C)[C@H](C)NC(=O)[C@H]([C@@H](C)OCc2ccccc2)NC(=O)[C@H](CC(=O)O)NC1=O | 6.92
CC(C)C[C@@H]1NC(=O)C[C@H](CCCCN)NC(=O)[C@H](CC2CCCCC2)NC(=O)[C@@H]2CCCN2[C@H](C(=O)NC(C)(C)C)[C@H](C)NC(=O)[C@H]([C@@H](C)O)NC(=O)[C@H](CC(=O)O)NC1=O | 7.14
CC(C)C[C@@H]1NC(=O)[C@@H]2C[C@@H](OCc3ccccc3)CN2C(=O)[C@@H]2CCCN2[C@H](C(=O)NC(C)(C)C)[C@H](C)NC(=O)[C@H]([C@@H](C)O)NC(=O)[C@H](CC(=O)O)NC1=O | 7.23

So, `CC(C)C[C@@H]1NC(=O)[C@H]2C[C@H](O)CN2C(=O)[C@H](Cc2ccc(O)cc2)NC(=O)[C@@H]2CCCN2[C@H](C(=O)NC(C)(C)C)[C@H](C)NC(=O)[C@H]([C@@H](C)O)NC(=O)[C@H](CC(=O)O)NC1=O` ? Its pIC50 was 7.28

So, `CC(C)C[C@@H]1NC(=O)[C@H](C2CCCCC2)NC(=O)[C@@H]2CCCN2[C@H](C(=O)NC(C)(C)C)[C@H](C)NC(=O)[C@H]([C@@H](C)O)NC(=O)[C@H](CC(=O)O)NC1=O` ? Its pIC50 was 6.90

So, `C=CCOc1ccc(C[C@@H]2NC(=O)[C@@H]3CCCN3[C@H](C(=O)NC(C)(C)C)[C@H](C)NC(=O)[C@H]([C@@H](C)O)NC(=O)[C@H](CC(=O)O)NC(=O)[C@H](CC(C)C)NC(=O)CNC2=O)cc1` ? Its pIC50 was 6.90

So, `CC(C)C[C@@H]1NC(=O)[C@H](Cc2ccccc2)NC(=O)[C@@H]2C[C@@H](F)CN2[C@H](C(=O)NC(C)(C)C)[C@H](C)NC(=O)[C@H]([C@@H](C)O)NC(=O)[C@H](CC(=O)O)NC1=O` ? Its pIC50 was 7.13

So, `CC(C)C[C@@H]1NC(=O)C[C@H](CCCCN)NC(=O)[C@H](Cc2ccccc2-c2cccnc2Br)NC(=O)[C@@H]2CCCN2[C@H](C(=O)NC(C)(C)C)[C@H](C)NC(=O)[C@H]([C@@H](C)O)NC(=O)[C@H](CC(=O)O)NC1=O` ? Its pIC50 was 7.43

So, `COc1ccccc1-c1cccc(C[C@@H]2NC(=O)[C@@H]3CCCN3[C@H](C(=O)NC(C)(C)C)[C@H](C)NC(=O)[C@H]([C@@H](C)O)NC(=O)[C@H](CC(=O)O)NC(=O)[C@H](CC(C)C)NC(=O)C[C@H](CCCCN)NC2=O)c1` ? Its pIC50 was 7.24
